Reported values of pIC50 for individual entries
- System: MT4
- EXPERIMENT_DESCRIPTION: Cytotoxicity against MT-4 cells
- Type: functional, cell-based
- CONDITION_SUMMARY: Homo sapiens
Friendly reminder that pIC50 comes from taking -log10 of the concentration in mol/L.

| INPUT_SMILES | pIC50 |
| --- | --- |
| Cc1cccc(C)c1OCC(=O)N[C@@H](Cc1ccccc1)[C@@H](O)C[C@H](CC(C)C)NC(=O)[C@H](C(C)C)N1CCCNC1=O | 4.46 |
| Cc1cccc(C)c1OCC(=O)N[C@@H](Cc1ccccc1)[C@@H](O)C[C@@H](NC(=O)[C@H](C(C)C)N1CCCNC1=O)C(C)C | 4.25 |
| Cc1cccc(C)c1OCC(=O)N[C@@H](Cc1ccccc1)[C@@H](O)C[C@H](CCC(C)C)NC(=O)[C@H](C(C)C)N1CCCNC1=O | 4.73 |
| Cc1cccc(C)c1OCC(=O)N[C@@H](Cc1ccccc1)[C@@H](O)C[C@H](Cc1ccccc1)NC(=O)[C@H](C(C)C)N1CCCNC1=O | 4.75 |
| CCCC[C@@H](C[C@H](O)[C@H](Cc1ccccc1)NC(=O)COc1c(C)cccc1C)NC(=O)[C@H](C(C)C)N1CCCNC1=O | 4.48 |

Request: Given CCC(CC)C[C@@H](C[C@H](O)[C@H](Cc1ccccc1)NC(=O)COc1c(C)cccc1C)NC(=O)[C@H](C(C)C)N1CCCNC1=O , state its recorded pIC50.
Response: 4.75
